- targetDesc: Voltage-gated L-type calcium channel (Rattus norvegicus, UniProt P22002+Q02485+P27732)
- assayInfo: Affinity to bind dihydropyridine receptor (DHP receptor) by inhibiting the radioligand [3H]nitrendipine
- Assay type: protein assay
property: IC50 (µM)
One number for each entry, in µM.

The examples below pair each entry with its known result.
Exam item: Value lookup for IC50; key = CCOC(=O)C1=C(C[S+]([O-])c2ccccc2)NC(C)=C(C#N)C1c1ccccc1C(F)(F)F (stereo in doubt; 29a)
Marked response: 1.6

Exam item: Can you handle CCOC(=O)C1=C(CS(=O)(=O)c2ccncc2)NC(C)=C(C#N)C1c1ccccc1C(F)(F)F (stereo in doubt; 54) next?
Marked response: 0.271

Exam item: Let us now turn to CCO/C(O)=C1\C(CS(=O)(=O)c2ccc(OC)cc2)=NC(C)=C(C#N)C1c1ccccc1C(F)(F)F (stereo not drawn)
Marked response: 0.109

Exam item: Now try CCO/C(O)=C1\C(CS(=O)(=O)c2ccccc2)=NC(C)=C(C#N)C1c1ccccc1C(F)(F)F (stereo not drawn) .
Marked response: 0.12

Could you now look at the following molecule, please?
Exam item: Value lookup for IC50; key = CCO/C(O)=C1\C(CSc2ccncc2)=NC(C)=C(C#N)C1c1cccc(Cl)c1Cl (stereo not drawn)
Marked response: 1.4

---

- targetDesc: Voltage-gated L-type calcium channel (Rattus norvegicus, UniProt P22002+Q02485+P27732)
- assayInfo: Affinity to bind dihydropyridine receptor (DHP receptor) by inhibiting the radioligand [3H]nitrendipine
- Format: protein assay
property: IC50

Solved entries (count: 2):
Exam item: Give the measured IC50 of CCO/C(O)=C1\C(C[S+]([O-])c2ccccc2)=NC(C)=C(C#N)C1C1CCCCC1 (stereo not drawn) .
Marked response: > 1000 nM

Exam item: Then this molecule: CCOC(=O)C1=C(C)N=C(C[S+]([O-])c2ccccc2)/C(=C(/O)OCC)C1c1cccnc1 (stereo not drawn)
Marked response: > 1000 nM

Turning now to a further molecule:
Exam item: Fill in: IC50 of CCO/C(O)=C1\C(CS(=O)(=O)c2ccccc2F)=NC(C)=C(C#N)C1c1ccccc1C(F)(F)F (stereo not drawn) is ___
Marked response: > 1000 nM

---

Could you please report measured IC50 for the items listed next?
- targetDesc: Voltage-gated L-type calcium channel (Rattus norvegicus, UniProt P22002+Q02485+P27732)
- assayInfo: Affinity to bind dihydropyridine receptor (DHP receptor) by inhibiting the radioligand [3H]nitrendipine
- Type: protein assay

Recorded IC50, per entry:
Exam item: IC50 lookup needed for CCO/C(O)=C1\C(C[S+]([O-])c2ccccc2F)=NC(C)=C(C#N)C1c1ccccc1C(F)(F)F (stereo not drawn) , thanks.
Marked response: > 1000 nM

Exam item: Same thing, different compound: CCO/C(O)=C1\C(C[S+]([O-])c2ccccc2)=NC(C)=C(C#N)C1c1ccco1 (stereo not drawn)
Marked response: > 1000 nM

Would you kindly look at the next entry?
Exam item: Look at this compound and give its reported IC50. CCO/C(O)=C1\C(C[S+]([O-])c2ccccc2)=NC(C)=C(C#N)C1c1ccccc1Cl (stereo not drawn)
Marked response: > 1000 nM
